Can you tell me composite z-score for the items I'm about to list?
Assay Overview: probe aLefty1 binding on compound microarray – biochemical, small-molecule microarray, 635/667 nm fluorescence, primary screen (AID 1153);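 further: score merges spot fluorescence with signal-to-noise ratio from the scanned slide images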
Experimental Setup: higher = more signal

Q) Reported composite z-score for `C=C(CCCC)/C(=C/C[C@H](OC(=O)c1ccncc1)c1ccc(OCCO)cc1)c1cnc2ccccc2c1` : what is it?
A) 0.127

Q) Reported composite z-score for COc1cc(C(O)C2C=CC3C(=O)N(c4ccccc4)C(=O)C3N2Nc2ccccc2)cc(OC)c1OC (stereo unspecified) : what is it?
A) 0.501

Q) Reported composite z-score for `CCOC(=O)C[C@H]1[C@H](OC(=O)Cc2ccc3c(c2)OCO3)[C@@H](NC(=O)Cc2ccc(OC)cc2)c2cc(OCCCO)ccc2N1C(=O)Cc1ccc(OC)cc1` : what is it?
A) -0.15

Q) Reported composite z-score for COc1ccc(C(O)C2C=CC3C(=O)N(c4ccccc4)C(=O)C3N2Nc2ccc(C#N)cc2)cc1OCc1ccccc1 (stereo unspecified) : what is it?
A) 0.482

Q) Reported composite z-score for `Cc1ccc(S[C@]2(C(=O)NCC(F)(F)F)CC(=O)N(Cc3ccccc3C(F)(F)F)[C@@H]2c2ccc(CO)cc2)cc1` : what is it?
A) 0.007

Q) Reported composite z-score for `C=CCOC(=O)[C@@H]1[C@H]2C(=O)O[C@H](c3ccccc3)[C@H](c3ccccc3)N2[C@H](c2ccc(OCCOC(=O)[C@H]3C[C@H]4C(=O)N[C@@H](CCCCN(C)C)C(=O)N4[C@H]3c3ccc(O)cc3)cc2)[C@@]12C(=O)Nc1ccc(I)cc12` : what is it?
A) 0.0313

* * *

Assay Overview: viability profiling in RPMI8226 myeloma cells – cell-based, resazurin fluorescence, basal, 24 h, PK04 Diversity Set, profiling panel (AID 1180);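 further: RPMI8826 multiple myeloma cell line at 5000 cells per well; test concentration not given here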
Experimental Setup: higher = more signal
Can you tell me z-score for the items I'm about to list?
Number, no unit, nothing else.

Q) Reported z-score for N#Cc1ccc(C(O)C2C=CC3C(=O)NC(=O)C3N2Nc2ccc(Cl)cc2Cl)cc1 (centres undefined) : what is it?
A) -1.35

Q) Reported z-score for `O=C(NC1CC1)[C@@H]1c2ccccc2C(=O)N(CC23CC4CC(CC(C4)C2)C3)[C@H]1c1ccc(CO)cc1` : what is it?
A) 1.07

Q) Reported z-score for `COCCOC(=O)N1C(=O)[C@@]2(c3ccccc31)[C@H](C(=O)N1CCN(c3ncccn3)CC1)[C@H]1C(=O)O[C@H](c3ccccc3)[C@H](c3ccccc3)N1[C@@H]2c1ccccc1OCCO` : what is it?
A) 1.69

Q) Reported z-score for CC1CC/C=C\[C@H]2OC34C=CCN(C(C)(C)C)C(=O)[C@H]3N(CCCO)C(=O)[C@@H]4C2C(=O)O1 (some centres undefined) : what is it?
A) 0.276

Q) Reported z-score for `COCCn1c(C(=O)N(C)C)cc2c1C[C@H]1CN(C(=O)c3ccccc3)[C@@](Cc3ccc(OC)cc3)(C(=O)OC)[C@@H]21` : what is it?
A) -1.81

Q) Reported z-score for `CCCNC(=O)[C@@]1(c2ccc([N+](=O)[O-])cc2)CC(=O)N(C(C)C)[C@@H]1c1ccc(CO)cc1` : what is it?
A) 0.123

Q) Reported z-score for `CCCCC(=C=CC[C@H](O)c1ccc(CO)o1)CCO` : what is it?
A) -0.34

Q) Reported z-score for C=CCC(OC(C)=O)[C@@H]1[C@@H](N(Cc2ccc(-c3ccccc3)cc2)C(=O)c2cccc3ccccc23)c2cc(OCCCO)ccc2N1C(=O)Cc1ccc(OC)cc1 (some centres undefined) : what is it?
A) -0.505

Q) Reported z-score for `CCOC(=O)C[C@H]1[C@H](OC(=O)c2cc3ccccc3oc2=O)[C@@H](NC(=O)CC(C)C)c2cc(OCCCO)ccc2N1C(=O)Cc1ccc(OC)cc1` : what is it?
A) -0.72

Q) Reported z-score for `C=CCOC(=O)[C@H]1[C@@H]2C(=O)O[C@@H](c3ccccc3)[C@@H](c3ccccc3)N2[C@@H](c2ccc(OCCOC(=O)[C@H]3C[C@H]4C(=O)N[C@@H](CC(C)C)C(=O)N4[C@H]3c3ccc(O)cc3)cc2)[C@]12C(=O)Nc1ccccc12` : what is it?
A) 0.862

Q) Reported z-score for `CC(C)NC(=O)[C@@]1(C)c2ccccc2C(=O)N(Cc2ccccc2)[C@H]1c1ccc(CO)cc1` : what is it?
A) 0.453

Q) Reported z-score for `O=C(NC1CC1)[C@@H]1c2ccccc2C(=O)N(Cc2cc(C(F)(F)F)cc(C(F)(F)F)c2)[C@H]1c1ccc(CO)cc1` : what is it?
A) 0.51

Q) Reported z-score for COc1ccc(NN2C(C(O)c3ccc(I)cc3)C=CC3C(=O)N(C4CCCCC4)C(=O)C32)cc1 (centres undefined) : what is it?
A) -0.313

Q) Reported z-score for `[N-]=[N+]=NCc1ccccc1[C@@H]1OC(c2ccc(OCCCO)cc2)=N[C@]1(Cc1ccccc1N=[N+]=[N-])C(=O)O` : what is it?
A) -0.0845

Q) Reported z-score for O=C1NC(=O)C2C1C=CC(C(O)c1ccc([N+](=O)[O-])cc1)N2Nc1ccccn1 (centres undefined) : what is it?
A) -0.723

Q) Reported z-score for `CCOC(=O)C[C@H]1[C@H](OC(=O)Cc2ccc3c(c2)OCO3)[C@@H](NC(=O)Cc2ccc(OC)cc2)c2cc(OCCCO)ccc2N1C(=O)Cc1ccc(OC)cc1` : what is it?
A) 1.02

Q) Reported z-score for `COc1ccc(C(=O)Nc2ccc3c(c2)[C@@]2(O[C@H](CCO)[C@@H]([Si](C)(C)c4ccc(OC)cc4)[C@@H]2C)C(=O)N3Cc2ccccc2)cc1` : what is it?
A) -5.58

Q) Reported z-score for `C=CC[C@@]12N=C(c3ccc(OCCCO)cc3)O[C@@H]1c1ccccc1N(CCC)C2=O` : what is it?
A) -0.473

Q) Reported z-score for CCCCC(O)C1C=CC2C(=O)N(c3ccccc3)C(=O)C2N1Nc1ccc(C#N)cc1 (centres undefined) : what is it?
A) 0.628

Q) Reported z-score for `O=C1O[C@H](c2ccccc2)[C@H](c2ccccc2)N2[C@H]1[C@@H](C(=O)N1CCN(c3ncccn3)CC1)[C@]1(C(=O)Nc3ccc(C#CCCO)cc31)[C@H]2c1ccc(O)cc1` : what is it?
A) 0.186

Q) Reported z-score for `C=C(CCCC)/C(=C/C[C@H](OC(=O)c1ccncc1)c1cccc(OCCO)c1)c1cnc2ccccc2c1` : what is it?
A) -0.82

Q) Reported z-score for `O=C1c2ccccc2[C@@]2(Cc3ccccc3N(Cc3ccccc3)C2=O)[C@H](c2ccc(CO)cc2)N1Cc1ccccc1Cl` : what is it?
A) 0.694

Q) Reported z-score for `COC(=O)[C@@]1(Cc2ccc(F)cc2)[C@H]2c3cc(C(=O)N4CCCC4)n(Cc4ccccn4)c3C[C@H]2CN1C(=O)c1ccccc1` : what is it?
A) -2.45

Q) Reported z-score for `Cc1ccc(S[C@]2(C(=O)NC(C)C)CC(=O)N(C3CCCCC3)[C@@H]2c2ccc(CO)cc2I)cc1` : what is it?
A) -2.01

Q) Reported z-score for C=CCC(OC(C)=O)[C@@H]1[C@@H](N(Cc2ccc(-c3cccc(C(F)(F)F)c3)o2)C(=O)c2ccc(-c3ccccc3)cc2)c2cc(OCCCO)ccc2N1C(=O)c1ccc2ccccc2c1 (some centres undefined) : what is it?
A) 0.881

Q) Reported z-score for CCCCC(O)C1C=CC2C(=O)N(c3ccccc3)C(=O)C2N1Nc1ccc([N+](=O)[O-])cc1 (centres undefined) : what is it?
A) -0.354

Q) Reported z-score for NC(=O)N1C(=O)C2C(C1=O)C1C=C(CCCO)C2C(C2CC2)N1Cc1sc2ccccc2c1Cl (centres undefined) : what is it?
A) 0.555

Q) Reported z-score for `C=CC[C@@]1(C(=O)OC)N=C(c2ccc(OCCCO)cc2)O[C@@H]1c1ccccc1N=[N+]=[N-]` : what is it?
A) -0.937

Q) Reported z-score for CC(C)(C)N1CC=CC23O[C@@H]4/C=C\CCCOC(=O)C4[C@H]2C(=O)N(CCCO)[C@@H]3C1=O (some centres undefined) : what is it?
A) -0.0182
